- TEST_SUMMARY: Quantitative highthroughput screen to assess conditional lethalithy of SEM cells grown in Human Plasma-Like Medium with dialyzed fetal bovine serum (HPLM+ds) (AID 1963882); note: nearly all actives have a fitted effect of over 35% in size
- CONDITION_PARAMETERS: SEM B-ALL cells in HPLM+ds, CellTiter-Glo viability, 48 h; series mostly up to 45.8 µM
Results filed as inconclusive are left out. Active and inactive are the calls of the source. Calls come from the whole dose curve; as a rule, active = well fitted cell-killing curve with a large enough effect; inconclusive = small, poorly fitted or top-dose-only effect, or effect the other way; inactive = no such curve, though single readings can be large or run the other way.
Return exactly one item of 1 = active, -1 = inactive

Would you please look over these solved cases?
• CN1CCC(COc2cnc(-c3cccc(Cn4nc(-c5cccc(C#N)c5)ccc4=O)c3)nc2)CC1 = -1
• C=CC1=C(C(=O)O)N2C(=O)[C@@H](NC(=O)C(=NO)c3csc(N)n3)[C@H]2SC1 = -1
• O=C(O)CCNC(=O)c1ccc(N=Nc2ccc(O)c(C(=O)O)c2)cc1 = -1
• CN(C)Cc1cccc(N=C(c2ccccc2)c2c(O)[nH]c3cc(C(=O)N(C)C)ccc23)c1 = 1
• CCN1CCN(c2ccc(Nc3cc(N(C)C(=O)Nc4c(Cl)c(OC)cc(OC)c4Cl)ncn3)cc2)CC1 = 1

IN: Given "CNC(=O)c1cccc(-c2ccc3c(N4CCOC[C@H]4C)nc(N4CCOC[C@H]4C)nc3n2)c1" , state the outcome it received in this test.
OUT: 1

IN: Can you look up the reported call for "CC1(C)Cc2c(sc(NC(=S)NC(=O)c3ccccc3)c2C(=O)O)CO1" for me?
OUT: -1

IN: In this assay, the call recorded for "C[C@H](NC(=O)C(=O)Nc1ccccc1C(C)(C)C)C(=O)N[C@@H](CC(=O)O)C(=O)COc1c(F)c(F)cc(F)c1F" was what?
OUT: 1

IN: In this assay, the call recorded for "Cc1cnc(NC(=O)Nc2cc(Br)c(C)cc2OC[C@@H]2CNCCO2)cn1" was what?
OUT: 1

###

- TEST_SUMMARY: Cellular viability qHTS for adrenocortical cancer (ACC) cell line NCI-H295R (AID 1963990); note: nearly all actives have a fitted effect of over 60% in size
- CONDITION_PARAMETERS: CellTiter-Glo ATP luminescence, 48 h; series mostly up to 46.1 µM
Records with an inconclusive call do not appear. Calls of active or inactive are those of the source. Calls come from the whole dose curve; as a rule, active = well fitted cell-killing curve with a large enough effect; inconclusive = small, poorly fitted or top-dose-only effect; inactive = flat fitted curve, though single readings scatter.
Response enum: active, inactive

- C=CC(=O)N1CCC(Oc2cc3c(Nc4ccc(Cl)c(Cl)c4F)ncnc3cc2OC)CC1: active
- O=C(CN1C(=O)C2(CCCC2)NC[C@H]1c1cc(F)cc(F)c1)Nc1ccc2c(c1)C[C@@]1(C2)C(=O)Nc2ncccc21: inactive
- N#Cc1cccc(-c2c[nH]c3ncnc(N4CCOCC4)c23)c1: inactive

IN: So what was the verdict on "NC(=Nc1ccccc1)Nc1ccccc1" in this test?
OUT: inactive

IN: GET /call?item= "Cc1cc(O)cc(C)c1Cl" returns the recorded outcome of this test.
OUT: inactive

IN: Give the logged outcome of this assay for the following compound: "CC(C)(C)Sc1c(CC(C)(C)C(=O)O)n(Cc2ccc(Cl)cc2)c2ccc(OCc3ccc4ccccc4n3)cc12"
OUT: inactive

IN: What classification did "CC(=O)[C@@]1(O)CC[C@H]2[C@@H]3C[C@H](C)C4=CC(=O)C=C[C@]4(C)[C@@]3(F)[C@@H](O)C[C@@]21C" end up with in this test?
OUT: inactive

IN: Which outcome was entered for the compound CO[C@@H]1C(N(C)C(=O)c2ccccc2)C[C@H]2O[C@]1(C)n1c3ccccc3c3c4c(c5c6ccccc6n2c5c31)C(=O)NC4=O (some centres not stated) in this test?
OUT: inactive

IN: // return assay outcome for "Clc1ccc2ncc(-c3cccc(NC4CNC4)n3)n2c1"
OUT: inactive

IN: Can you look up the reported call for "Cn1cc[nH]c1=S" for me?
OUT: inactive

IN: Please indicate how the test categorized "CCOc1c(N2CCOCC2)cnn(C)c1=O" .
OUT: inactive

###

- TEST_SUMMARY: Quantitative highthroughput screen to assess conditional lethalithy of NOMO1 cells grown in RPMI1640 with untreated serum (RPMI+s) (AID 1963876); note: nearly all actives have a fitted effect of over 35% in size;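 for viability: 100% = DMSO wells and 0% = empty wells without cells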
- CONDITION_PARAMETERS: NOMO1 AML cells in RPMI+serum, CellTiter-Glo viability, 48 h; series mostly up to 45.8 µM
- Experimental: Assay Provider: Jason Cantor Ph.D. Department of Biochemistry University of Wisconsin-Madison, Madison, WI, USA Chemical screening studies have identified drug sensitivities across hundreds of cancer cell lines but most putative therapeutics fail to translate. […] Sets of conditional anticancer compounds spanned phases of clinical development and included non-oncology drugs were assessed. […] 6; Detection; Luminescence, Viewlux PerkinElmer. […]
Results filed as inconclusive are left out. The source made the active and inactive calls. Calls follow the shape of the dose curve; as a rule, active = well fitted cell-killing curve with a large enough effect; inconclusive = small, poorly fitted or top-dose-only effect; inactive = flat fitted curve, though single readings scatter.
Can you answer with just one of these options? Y for active, N for inactive

Would you please look over these solved cases?
• CC(=O)O[C@@]12CO[C@H]1C[C@H](O)[C@@]1(C)C(=O)[C@H](O)C3=C(C)[C@@H](OC(=O)C(O)[C@@H](NC(=O)OC(C)(C)C)c4ccccc4)C[C@@](O)([C@@H](OC(=O)c4ccccc4)[C@@H]21)C3(C)C (some centres not stated) = N
• O=C(NCC1CCCCN1)c1cc(OCC(F)(F)F)ccc1OCC(F)(F)F (configuration not stated) = Y
• CCC(C)N(C)C(=O)c1cc2ccccc2c(-c2ccccc2Cl)n1 (configuration not stated) = N

IN: Test call for this molecule, please: "CO[C@H]1/C=C\O[C@@]2(C)Oc3c(C)c(O)c4c(O)c(c(C=NN5CCN(C6CCCC6)CC5)c(O)c4c3C2=O)NC(=O)C(C)=CC=C[C@H](C)[C@H](O)[C@@H](C)[C@@H](O)[C@@H](C)[C@H](OC(C)=O)[C@H]1C"
OUT: Y

IN: Can you look up the reported call for "O=[N+]([O-])c1ccc(Nc2ccccc2-c2ccccc2)c2nonc12" for me?
OUT: N

IN: Which outcome was entered for the molecule "CC(C)C(=O)Nc1ncc(-c2cc(C(F)F)nn2-c2c(Cl)cccc2Cl)s1" in this test?
OUT: N

IN: Per the records of this test, what outcome belongs to "CON(C)C(=O)N1N=C(c2cc(F)ccc2F)S[C@@]1(CCCN)c1ccccc1" ?
OUT: Y

###

- TEST_SUMMARY: Quantitative highthroughput screen to assess conditional lethalithy of NOMO1 cells grown in RPMI1640 with untreated serum (RPMI+s) (AID 1963876); note: nearly all actives have a fitted effect of over 35% in size;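 for viability: 100% = DMSO wells and 0% = empty wells without cells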
- CONDITION_PARAMETERS: NOMO1 AML cells in RPMI+serum, CellTiter-Glo viability, 48 h; series mostly up to 45.8 µM
Records with an inconclusive call do not appear. Calls of active or inactive are those of the source. Calls come from the whole dose curve; as a rule, active = well fitted cell-killing curve with a large enough effect; inconclusive = small, poorly fitted or top-dose-only effect; inactive = flat fitted curve, though single readings scatter.
# valid calls are active, inactive; nothing else

Solved cases (5 shown):
* NS(=O)(=O)OC[C@@H]1C[C@@H](n2ccc3c(N[C@H]4CCc5ccccc54)ncnc32)C[C@H]1O | active
* Cc1ccc([C@@H]2O[C@H](CO)[C@@H](O)[C@H](O)[C@@H]2O)cc1Cc1ccc(-c2ccc(F)cc2)s1 | inactive
* O=C(c1ccccc1)c1ccc2n1CCC2C(=O)O (stereo not given) | inactive
* O=c1c(-c2ccc(O)cc2)coc2cc(O)ccc12 | inactive
* O=C(O)[C@@H](c1ccc(OCc2ccc3ccccc3n2)cc1)C1CCCC1 | inactive

IN: Which outcome was assigned to "CCCn1c(=O)c2[nH]c(-c3cnn(Cc4cccc(C(F)(F)F)c4)c3)nc2n(CC)c1=O" in this test?
OUT: active

IN: Which outcome did this test record for the compound "CC(=O)OCC(=O)[C@@]12N=C(C)O[C@H]1C[C@H]1[C@@H]3CCC4=CC(=O)C=C[C@]4(C)[C@@H]3[C@@H](O)C[C@@]12C" ?
OUT: inactive

IN: Hi, sorry to bother you, what did the test record for CC=C1C2C=C(C)CC1(N)c1ccc(=O)[nH]c1C2 (stereo not given) ?
OUT: inactive

IN: Lab log entry: CN(N=O)C(=O)N[C@H]1C(O)OC(CO)[C@@H](O)[C@H]1O (stereo not given in full) — outcome as called in the assay?
OUT: inactive

IN: Could you please tell me the result logged for O[C@@H](COc1cccc2ncccc12)CN1CCN(C2c3ccccc3[C@@H]3[C@H](c4ccccc42)C3(F)F)CC1 (stereo not given in full) in this assay?
OUT: inactive

IN: Query: recorded result category for "CC(C)Oc1ccc2c(=O)c(-c3ccccc3)coc2c1" in this test
OUT: inactive

IN: Record request — test call for "O=C1NC(=O)C(=Cc2cccc(C(F)(F)F)c2)S1"
OUT: inactive

IN: // outcome(item) with item = "C[C@H](NC(=O)C(C#N)=Cc1cccc(Br)n1)c1ccccc1"
OUT: active

IN: // return assay outcome for CC1(C)CC(=O)c2c(C(F)(F)F)nn(-c3ccc(C(N)=O)c(NC4CCC(OC(=O)CN)CC4)c3)c2C1 (stereo not given)
OUT: active

IN: Dear colleague, could you share the recorded outcome for "CC(C)[C@@H](CS(=O)(=O)C(C)C)N1C(=O)[C@@](C)(CC(=O)O)C[C@H](c2cccc(Cl)c2)[C@H]1c1ccc(Cl)cc1" when you have a moment?
OUT: active

IN: Please indicate how the test categorized "CN(C)CC=CC(=O)Nc1cc2c(Nc3ccc(F)c(Cl)c3)ncnc2cc1O[C@H]1CCOC1" .
OUT: active
